Hey, just so you know, these numbers are from patent US20220332804A1.

# TARGET_OF_ASSAY: T1, cynomolgus monkey C2 (cynomolgus monkey, UniProt G8F3W0 21-752)
# T1 sequence: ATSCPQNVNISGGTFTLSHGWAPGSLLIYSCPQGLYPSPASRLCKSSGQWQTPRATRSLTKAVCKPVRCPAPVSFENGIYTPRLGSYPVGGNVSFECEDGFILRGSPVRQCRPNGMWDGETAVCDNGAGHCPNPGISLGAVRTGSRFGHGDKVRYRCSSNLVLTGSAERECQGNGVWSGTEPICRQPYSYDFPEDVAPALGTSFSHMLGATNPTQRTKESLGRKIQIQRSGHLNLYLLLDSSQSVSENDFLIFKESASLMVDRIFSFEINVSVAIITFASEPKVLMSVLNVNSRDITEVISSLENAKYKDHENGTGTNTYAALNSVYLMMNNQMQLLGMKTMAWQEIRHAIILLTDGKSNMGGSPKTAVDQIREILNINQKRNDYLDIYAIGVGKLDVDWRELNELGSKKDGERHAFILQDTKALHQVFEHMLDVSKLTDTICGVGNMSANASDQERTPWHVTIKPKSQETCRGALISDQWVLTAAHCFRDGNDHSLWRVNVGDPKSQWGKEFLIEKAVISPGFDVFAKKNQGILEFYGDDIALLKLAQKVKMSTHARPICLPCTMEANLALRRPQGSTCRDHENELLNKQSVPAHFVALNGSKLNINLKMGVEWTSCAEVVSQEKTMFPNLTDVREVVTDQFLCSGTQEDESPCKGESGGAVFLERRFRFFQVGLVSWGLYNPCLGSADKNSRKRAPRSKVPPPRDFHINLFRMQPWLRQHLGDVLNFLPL
# TEST: cell-based or functional assay
ASSAY_READOUT: IC50, inhibition of cynomolgus classical complement pathway (Wieslab assay) (nM)

BINDER	ASSAY_RESULT
RF16-242 (antibody, V domains shown) VH: EVQLLQSGAEVKKPGESLKISCKGSGYSFTSYWIGWVRQMPGKGLEWMGIIYPGDSDTRYSPSFQGQVTISADKSISTAYLQWSSLKASDTAMYYCARRGHYGDYFDYWGQGTLVTVSS VL: SYELTQPPSVSVSPGQTARITCSGDALPKKYAYWYHQKSGQAPVLVIYEDRRRPSEIPERFSGSSSGTMATLTITGAQVEDEGVYFCYSRDRAGNQRVFGGGTQLTVLG	8.97
RF16-191G (antibody, V domains shown) VH: EVQLLESGGGLVQPGGSLRLSCAASGFTFSKYWMGWVRQAPGKGLEWVSSIYSSGGWTYYADSVKGRFTISRDNSKNTLYLQMNSLRAEDTAVYYCARRPRSFSGSYYRAFDIWGQGTMVTVSS VL: DIQMTQSPSSLSASVGDRVTITCRASQSITDYLNWYQQKPGKAPKLLIYAASSLQSGVPSRFSGSGSGTDFTLTISSLQPEDFATYYCQQSYSSSITFGQGTRLDLKR	8.73
RF16-203 (antibody, V domains shown, Human antibody from a phage display library) VH: EVQLLESGGGLVQPGGSLRLSCAASGFTFSRYYMMWVRQAPGKGLEWVSSIGSSGGTTNYADSVKGRFTISRDNSKNTLYLQMNSLRAEDTATYYCAKGGMVLGVVNIWGQGTLVTVSS VL: QSALTQPPSVSVSPGQTATITCSGDKLGEKYVSWYQQKPGQSPVVVIFQDIKRPSGIPERFSGSNSGNTATLTISGTQAMDEADYYCQTWGTGGIQVFGGGTKLTVLR	13.3
